The origin of these recorded values is patent US8987275B2.

measurement_target: BCR-Abl T315I (Homo sapiens, UniProt P00519, T315I)
Construct: BCR (N-terminal fusion partner of BCR-ABL); human BCR would be P11274; expressed in transfected cells; host or cells: Ba/F3 (or 32D) murine hematopoietic cells transfected with BCR-ABL T315I in pCI-neo; the other entry of the earlier key: BCR (P11274, Breakpoint cluster region protein)
assay_name: IC50 of compounds against kinase target T315I (Table I)
Assay type: cell-based
condition_set: read-out: IC50 T3151
pIC50: −log10 of the molar value.
In this section we review reported pIC50 values for a set of compounds.

chemical_structure: CCN1CCN(Cc2ccc(NC(=O)c3ccc(C)c(-c4ccc5c(NC(=O)C6CC6)n[nH]c5c4)c3)cc2)CC1
operator: <
pIC50: 5.00
--
chemical_structure: CNC(=O)c1cccc(-c2ccc3c(NC(=O)C4CC4)n[nH]c3c2)c1
operator: =
pIC50: 5.68
--
chemical_structure: O=C(NCCN1CCOCC1)c1cccc(-c2ccc3c(NC(=O)C4CC4)n[nH]c3c2)c1
operator: <
pIC50: 5.00
--
chemical_structure: CCN1CCN(Cc2ccc(C(=O)Nc3cccc(-c4ccc5c(NC(=O)C6CC6)n[nH]c5c4)c3)cc2C(F)(F)F)CC1
operator: <
pIC50: 5.00
--
chemical_structure: Cc1ccc(C(=O)Nc2cccc(C(F)(F)F)c2)cc1Nc1ccc2c(NC(=O)C3CC3)n[nH]c2c1
operator: <
pIC50: 5.00
--
chemical_structure: CCN1CCN(Cc2ccc(NC(=O)c3cccc(-c4ccc5c(N)n[nH]c5c4)c3)cc2C(F)(F)F)CC1
operator: =
pIC50: 5.15
--
chemical_structure: CCN1CCN(Cc2ccc(C(=O)Nc3cccc(-c4ccc5c(N)n[nH]c5c4)c3)cc2C(F)(F)F)CC1
operator: =
pIC50: 6.51
--
chemical_structure: Cc1cn(-c2cc(NC(=O)c3cccc(-c4ccc5c(NC(=O)C6CC6)n[nH]c5c4)c3)cc(C(F)(F)F)c2)cn1
operator: =
pIC50: 6.51
--
chemical_structure: CCN1CCN(Cc2ccc(NC(=O)c3cccc(-c4ccc5c(NC(=O)C6CC6)n[nH]c5c4)c3)cc2)CC1
operator: <
pIC50: 5.00
--
chemical_structure: O=C(Nc1n[nH]c2cc(-c3cccc(C(=O)N4CCC(N5CCCC5)CC4)c3)ccc12)C1CC1
operator: <
pIC50: 5.00
--
chemical_structure: CN1CCN(c2ccc(C(=O)Nc3n[nH]c4cc(-c5cccc(C(=O)Nc6cccc(C(F)(F)F)c6)c5)ccc34)cc2)CC1
operator: <
pIC50: 5.00
--
chemical_structure: CNc1n[nH]c2cc(-c3cccc(C(=O)Nc4cc(-n5cnc(C)c5)cc(C(F)(F)F)c4)c3)ccc12
operator: =
pIC50: 5.51
--
chemical_structure: CCN1CCN(Cc2ccc(NC(=O)Nc3cccc(-c4ccc5c(NC(=O)C6CC6)n[nH]c5c4)c3)cc2C(F)(F)F)CC1
operator: =
pIC50: 6.62
--
chemical_structure: O=C(NC1CC1)c1cccc(-c2ccc3c(NC(=O)C4CC4)n[nH]c3c2)c1
operator: <
pIC50: 5.00
--
chemical_structure: CCOC(=O)c1cccc(-c2ccc3c(NC(=O)c4ccc(N5CCN(C)CC5)cc4)n[nH]c3c2)c1
operator: =
pIC50: 5.81
